# Lookup of reported raw competing-Ab binding signal keyed by entry
Target: T1, human Sdc2 (human, UniProt P34741 19-144, limits assumed)
T1 construct: Antigen of the Octet tandem binning, loaded on biosensors at 100 nM; also called huSdc2; hSdc2
T1 sequence (P34741 19-144 limits assumed): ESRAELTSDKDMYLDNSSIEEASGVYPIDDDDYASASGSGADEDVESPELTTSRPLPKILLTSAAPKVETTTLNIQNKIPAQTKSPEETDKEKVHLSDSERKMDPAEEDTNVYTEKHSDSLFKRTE
Test: Octet tandem binning; saturating Ab m2 19838-8G17-A

Answered examples (2):
{"binder": "19838-6-N03-A (antibody, IgG1, V domains shown) VH: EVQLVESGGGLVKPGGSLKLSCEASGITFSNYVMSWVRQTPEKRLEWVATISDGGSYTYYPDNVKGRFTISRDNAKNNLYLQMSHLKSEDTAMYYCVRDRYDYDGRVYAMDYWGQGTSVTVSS VL: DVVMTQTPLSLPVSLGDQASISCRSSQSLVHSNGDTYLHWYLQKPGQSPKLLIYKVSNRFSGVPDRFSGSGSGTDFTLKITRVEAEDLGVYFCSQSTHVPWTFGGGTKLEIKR", "result": -0.0312}
{"binder": "R4M-P3-A12 (antibody, human IgG1, kappa, V domains shown) VH: EVQLVESGGGVVQPGGSLRLSCAASGFTFSDHYMSWIRQAPGKGLEWVSYLSGSGTSIYYADSVKGRFTISRDNAKKSLYLQMNSLRAEDTAVYYCARVGPAAGNAFDIWGQGTMVTVSS VL: QSVLTQPPSASGTPGQRVTISCSGSSSNIGSNYVYWYQQLPGTAPKLLIYRNNQRPSGVPDRFSGSKSGTSASLAITGLQAEDEADYYCQSYDSSLSGVVFGGGTKLTVLR", "result": 0.103}

# next binder below
Exam item: Name the recorded raw competing-Ab binding signal for R4M-P1-A10 (antibody, human IgG1, kappa, V domains shown) VH: EVQLVETGGGVVQPGRSLRLSCAASGFTFSSYAMHWVRQAPGKGLEWVAVISYDGSNKYYADSVKGRFTISRDNSKNTLYLQMNSLRAEDTAVYYCARDRGWADAFDIWGQGTMVTVSS VL: QAGLTQPPSVSKGLRQTATLTCTGNSNNVGYQGAVWLLQYQGHPPKVLSNRNNDRPSGISERLSASRSGNTASLTITGLQPEDEGDYFCAAWDGSLRGWVFGGGTKLTVLR .
Marked response: 0.377
